Hello, the source for this data is PubChem BioAssay (NCI), in case you need it.

# System: 786-0 renal
# test.description: NCI tumour cell line growth inhibition, 48 h
Listed here are compounds together with their documented GI50.

| compound | GI50 |
| --- | --- |
| COc1ccc2cc(-c3c(-c4ccncc4)nc(-c4ccc(S(C)(=O)=O)cc4C)n3C)ccc2c1 | 11.4 µM |
| CN1C(=O)N(C)C2C1NN=c1s/c(=C\c3ccc(F)cc3)c(=O)n12 (centres undefined) | 7.55 µM |
| COc1cc(-c2cn(-c3ccc(Cl)c(Cl)c3)c(=O)n2C(C)=O)cc(OC)c1OC | 2.79 µM |
| Cc1cc2c(cc1C)N(C(=O)CCl)CCN2C(=O)CCl | 0.657 µM |
| COc1ccc2c(c1)/C(=C\c1c(Cl)[nH]c3ccc(OC)cc13)C(=O)N2 | 43.7 µM |
| O=C1c2cc(Cl)ccc2-c2c1c1ccc([N+](=O)[O-])cc1c(=O)n2CCCBr | 2.62 µM |
| O=C(O)c1ccc2c(c1)CCCC(c1ccc(Cl)cc1Cl)=C2c1ccc(O[C@H]2CCN(CCCF)C2)cc1 | 12.9 µM |
| Cc1ccc(-c2csc(NC(=O)CN3CCN(c4cc5c(cc4F)c(=O)c(C(=O)O)cn5C4CC4)CC3)n2)cc1 | 0.5 µM |
| OCCNc1ncnc2c1ncn2Cc1cccc(COc2cccc(OCc3cccc(Cn4cnc5c(NCCO)ncnc54)c3)c2)c1 | 15.5 µM |
| Cc1sc2nc3c4ccccc4c(NCCCN(C)C)nn3c(=O)c2c1C | 9.14 µM |
| CCOC(=O)/C=C/C1=C(c2cccs2)c2ccccc2CC1 | 35.5 µM |
| Cn1c2c(c3ccc(Cl)c(Cl)c31)C(C#N)C1(CCNCC1)NC2=O (centres undefined) | 1.66 µM |
| CCn1c2ccc(O)cc2c2c(C)c3c[n+](C)ccc3c(C)c21 | 0.52 µM |
| N.N.N.N.O=C([O-])C(Cl)Cl.O=C([O-])C(Cl)Cl.[Co+3].[O-][Cl+3]([O-])([O-])[O-] | > 100 µM |
